# System: DAPI
# assay_comment: TAG lipid buildup inhibition with viability readout – cell-based, panel, Nile Red and DAPI fluorescence, H9c2, dose response (AID 651630);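 further: cells exposed to compound overnight before fixation and staining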
# stated_conditions: H9c2 cells, DAPI nuclear fluorescence (cytotoxicity counter-readout), oleic acid, run 2
I'd appreciate it if you could supply IC50 cytotoxicity (DAPI nuclear signal decrease) values for the items below.
Answers are plain numbers, in µM.

{"columns": ["compound", "target_or_system", "value_units", "test_value"],
 "data": [
  ["Nc1c(Cl)cc(-c2csc(N3CCCC3c3nc4cc(Cl)c(N5CCCCC5)cc4n3CCCO)n2)cc1Cl (stereo not given)", "DAPI", "µM", 16.6]
]}

In the following, a different compound is considered.
IN: Look up IC50 cytotoxicity (DAPI nuclear signal decrease) for this compound: Cc1ccc(Cn2c(C(C)Nc3nc(-c4ccc(Cl)c([N+](=O)[O-])c4)cs3)nc3cc(C(F)(F)F)ccc32)cc1 (stereo not given)
OUT: 7.97

---

# System: DAPI
# assay_comment: TAG lipid buildup inhibition with viability readout – cell-based, panel, Nile Red and DAPI fluorescence, H9c2, dose response (AID 651630);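 further: cells exposed to compound overnight before fixation and staining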
# stated_conditions: H9c2 cells, DAPI nuclear fluorescence (cytotoxicity counter-readout), oleic acid, mean of runs
The source made the active and inactive calls.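 Rule for the calls: active = lipid-stain IC50 at or below a set limit, with nuclear-stain toxicity IC50 at least five times higher; inactive = the rest.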
Assign a class; possible classes are active, inactive

Reference set (3 entries):
{"columns": ["compound", "cat"],
 "data": [
  ["COc1cc(-c2ccc3oc(-c4cccc(C)c4)c(C#CC4(O)CCCCC4)c3c2)cc(OC)c1OC", "inactive"],
  ["COc1cc(C#Cc2c(-c3cncn3C)n(C)c3ccc(-c4cc(OC)c(OC)c(OC)c4)cc23)cc(OC)c1", "inactive"],
  ["COc1cccc(C2c3cc4c(cc3OC(NNC(N)=O)C2C)OCO4)c1O (centres undefined)", "inactive"]
]}

IN: Could you please tell me the result logged for CN(C)CCCn1c(=O)n(C2CCCCC2)c(=O)c2c3c(sc21)CCCCC3 in this assay?
OUT: inactive

IN: Per the assay record, what outcome was assigned to Cc1ccc(-c2nn(-c3ccccc3)cc2CSC(=N)N)cc1 ?
OUT: active

---

# Test system: DAPI
# assay_comment: TAG lipid buildup inhibition with viability readout – cell-based, panel, Nile Red and DAPI fluorescence, H9c2, dose response (AID 651630);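 further: cells exposed to compound overnight before fixation and staining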
# stated_conditions: H9c2 cells, DAPI nuclear fluorescence (cytotoxicity counter-readout), oleic acid, run 2
value_kind: IC50 cytotoxicity (DAPI nuclear signal decrease)

Past entries and their recorded results:
{"columns": ["compound", "test_value"],
 "data": [
  ["CC(=O)c1ccc(Oc2cc(C)nc(-n3nc(C)cc3C)n2)cc1", "> 25 µM"],
  ["CCOC(=O)c1[nH]c2ccc(OCC)cc2c1NC(=O)CN1CCN(c2ccccc2)CC1", "> 25 µM"],
  ["COc1ccc(C2NCCc3c2[nH]c2ccccc32)cc1CSc1nc2ccccc2s1 (centres undefined)", "24.6 µM"],
  ["NC(Cc1ccc(Cl)cc1)c1csc(NC(=O)NCCc2ccccc2)n1 (centres undefined)", "20.4 µM"],
  ["COc1cc2c3c(c1)c(C1=NC(=S)NC1=O)c(O)n3C(C)(C)C=C2C", "> 25 µM"],
  ["CCOc1cc(C(=O)N/N=C/c2cn(-c3ccccc3)nc2-c2cc3ccccc3o2)cc(OCC)c1OCC", "> 25 µM"],
  ["CC(C)(C)c1ccc(/C=N/NC(=O)Cc2c[nH]c3ccccc23)cc1", "> 25 µM"],
  ["CC(C)(C)OC(=O)N(CCc1ccccc1)Cc1ccccc1OCc1cccc(NC(=O)/C=C/c2ccccc2)c1", "> 25 µM"],
  ["CCOCCC(=O)Nc1ccc2c(c1)c(=O)n(C)n2C/C=C/c1ccccc1", "> 25 µM"],
  ["Nc1c(Cl)cc(-c2csc(N3CCCC3c3nc4cc(Cl)c(N5CCCCC5)cc4n3CCOCCO)n2)cc1Cl (centres undefined)", "> 25 µM"]
]}

Value sought for every listed compound: IC50 cytotoxicity (DAPI nuclear signal decrease).
1. CC(C)c1ccc(Nc2nc(N3CCOCC3)nc(N3CCOCC3)n2)cc1
2. C=CC[C@@H](CC(=O)N(CCO)Cc1ccccc1)C(=O)N[C@H](COC(=O)[C@@H](CC=C)Cc1ccc(F)cc1)Cc1c[nH]c2ccccc12
3. c1ccc(-c2nc(SCc3nc4ccccc4[nH]3)c3oc4ccccc4c3n2)cc1
4. COc1ccc(NC(=O)N(C)[C@H]2C[C@H]3c4[nH]c5ccc(-c6ccc7c(c6)OCO7)cc5c4CCN3C[C@H]2[C@H](C)O)cc1

OUT:
> 25 µM
> 25 µM
> 25 µM
> 25 µM

---

# System: TAG
# assay_comment: TAG lipid buildup inhibition with viability readout – cell-based, panel, Nile Red and DAPI fluorescence, H9c2, dose response (AID 651630);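 further: cells exposed to compound overnight before fixation and staining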
# stated_conditions: H9c2 cells, Nile Red TAG fluorescence, oleic acid, mean of runs
The source made the active and inactive calls.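 How the source made its calls: active means lipid-stain IC50 at or below a set limit, with nuclear-stain toxicity IC50 at least five times higher; inactive means the rest.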
Thanks in advance; please answer with one of these: active, inactive

{"columns": ["compound", "target_or_system", "cat"],
 "data": [
  ["CCOC(=O)c1[nH]c2ccc(OCC)cc2c1NC(=O)CN1CCN(c2ccccc2)CC1", "TAG", "inactive"],
  ["COC(=O)C1=C(C)N(Cc2ccccc2)C(=NCc2ccccc2)N[C@H]1c1ccccc1", "TAG", "inactive"],
  ["COc1ccc2sc(-c3ccc(S(C)(=O)=O)cc3)c(C#Cc3cncn3C)c2c1", "TAG", "inactive"],
  ["COc1cc(-c2ccc3oc(-c4cccc(C)c4)c(C#CC4(O)CCCCC4)c3c2)cc(OC)c1OC", "TAG", "inactive"]
]}

IN: Name the outcome recorded for COc1cccc(/C=C/C(=C2\C(=O)N(c3ccccc3)N=C2C)c2ccc(Br)cc2)c1OC in the assay.
OUT: active

IN: For COc1ccc(-c2cnnc(N/N=C/c3ccc(-c4ccc([N+](=O)[O-])cc4)o3)n2)cc1 , what call appears in the results of this test?
OUT: active

IN: # outcome recorded in this test, key = CC(C)CC(N)c1csc(NC(=O)Nc2ccccc2Cc2ccccc2)n1 (stereo not drawn)
OUT: inactive

---

# Test system: TAG
# assay_comment: TAG lipid buildup inhibition with viability readout – cell-based, panel, Nile Red and DAPI fluorescence, H9c2, dose response (AID 651630);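 further: cells exposed to compound overnight before fixation and staining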
# stated_conditions: H9c2 cells, Nile Red TAG fluorescence, oleic acid, mean of runs
Active and inactive are the calls of the source.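 The calls were made as follows: active = lipid-stain IC50 at or below a set limit, with nuclear-stain toxicity IC50 at least five times higher; inactive = the rest.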
Respond using exactly one of the listed classes: t (active), f (inactive)

// known answers, use as guide
{"columns": ["compound", "cat"],
 "data": [
  ["CCCCCCCCn1c(N2CCN(c3cccc(Cl)c3)CC2)nc2c1c(=O)[nH]c(=O)n2C", "f"],
  ["CCCOc1ccc(F)cc1-c1cc(C(=O)NCc2cc(OC)cc(OC)c2)[nH]n1", "t"],
  ["C=CC[C@@H](CC(=O)N(CCO)Cc1ccccc1)C(=O)N[C@H](COC(=O)[C@@H](CC=C)Cc1ccc(F)cc1)Cc1ccccc1", "t"],
  ["Oc1ccc(C[C@H]2CNC(=S)N2CC2CCCN2C[C@H](Cc2ccc(O)cc2)N2C[C@H](Cc3ccc(O)cc3)N(CC3CCCCC3)C2=S)cc1 (stereo partly specified)", "t"],
  ["COc1ccc2sc(-c3ccc(N(C)C)cc3)c(C#CCO)c2c1", "t"]
]}

IN: For COC(=O)[C@]1(Cc2ccccc2)N[C@H](c2ccc(-c3cccc(Cl)c3)c(OC)c2)[C@@H]2C(=O)N(C)C(=O)[C@@H]21 , which call appears in the assay record?
OUT: f

IN: Name the outcome recorded for c1ccc(-c2nc(N3CCOCC3)cc(N3CCOCC3)n2)cc1 in the assay.
OUT: t

IN: Short answer needed: outcome of this test for C#CCN(C[C@@H]1[C@@H](OC(=O)NCC2CCCCC2)[C@@H](OC(=O)NCC2CCCCC2)CN(C(=O)OC(C)C)N1C(=O)OC(C)C)S(=O)(=O)c1ccc(C)cc1 ?
OUT: t

IN: In this assay, the call recorded for CC(C)(C)OC(=O)[C@H](Cc1ccccc1)NC(=O)c1ncn2c1c(=O)[nH]c1ccc(Br)cc12 was what?
OUT: t

IN: Please let me know the test result on file for CCc1cc2c3c(c1)C1(C(=O)N3C(C)(C)C=C2C)C(C#N)=C(N)Oc2[nH]c(=O)[nH]c(=O)c21 (stereo unspecified) .
OUT: f

IN: Hi, do you know how Cc1cc(NC(=O)c2ccccc2F)n(-c2nc3ccccc3[nH]2)n1 came out in this test?
OUT: f

IN: Per the assay record, what outcome was assigned to COC(=O)c1cc(C(=O)N2CCN(c3ccccc3OC)CC2)cc([N+](=O)[O-])c1 ?
OUT: t

IN: Test call for this compound, please: Cc1c(C(=O)OCC(C)C)[nH]c2c1C(=O)CC(c1cccs1)C2 (stereo unspecified)
OUT: f

IN: What classification did Oc1ccc(C[C@H]2CNC(=S)N2CC2CCCN2C[C@H](Cc2ccc(O)cc2)N2C[C@H](Cc3ccc(O)cc3)N(CC3CCCCCC3)C2=S)cc1 (stereo partly specified) end up with in this test?
OUT: t

IN: Which outcome did this test record for the compound COc1ccc(NC(=O)O[C@@H](C)[C@@H]2CN3CCc4c([nH]c5ccc(-c6ccc(OC)cc6)cc45)[C@@H]3C[C@@H]2N(C)C(=O)Nc2ccc(OC)cc2)cc1 ?
OUT: t

IN: Answer briefly: the call reported for C=CCC[C@@H](Cc1ccc(F)cc1)C(=O)OC[C@@H](NC(=O)[C@@H](CC=C)CC(=O)N[C@H](CO)Cc1ccccc1)C(C)(C)C in this assay.
OUT: t
